- tested system: Bifunctional epoxide hydrolase 2 (Homo sapiens, UniProt P34913)
- Sequence (P34913 whole entry): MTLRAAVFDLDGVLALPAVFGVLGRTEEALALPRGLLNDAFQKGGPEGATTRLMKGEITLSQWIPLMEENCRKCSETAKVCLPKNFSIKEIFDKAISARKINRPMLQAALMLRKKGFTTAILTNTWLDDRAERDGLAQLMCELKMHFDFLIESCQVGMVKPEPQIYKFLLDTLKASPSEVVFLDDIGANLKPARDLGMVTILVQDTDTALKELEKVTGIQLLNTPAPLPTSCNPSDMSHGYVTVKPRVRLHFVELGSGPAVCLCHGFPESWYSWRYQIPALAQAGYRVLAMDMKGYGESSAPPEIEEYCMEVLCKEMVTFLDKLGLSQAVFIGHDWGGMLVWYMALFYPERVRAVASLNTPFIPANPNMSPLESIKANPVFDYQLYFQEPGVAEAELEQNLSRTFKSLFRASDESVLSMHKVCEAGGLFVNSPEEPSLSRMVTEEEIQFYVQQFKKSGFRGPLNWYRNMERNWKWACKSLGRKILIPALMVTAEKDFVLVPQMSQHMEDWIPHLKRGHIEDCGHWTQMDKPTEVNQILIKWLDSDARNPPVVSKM
- assay summary: Inhibition of human recombinant sEH expressed in baculovirus infected insect Sf9 cells using cyano(6-methoxynaphthalen-2-yl)methyl trans-[(3-phenyloxiran-2-yl)methyl] carbonate as substrate preincubated for 30 mins followed by substrate addition measured after 20 to 45 mins by fluorescence assay
Would you kindly list pIC50 for each of these molecules?
Give bare numbers, as −log10 of the molar value.

compound structure: Cc1cc(C(=O)N2CCC3(CC2)CN(C(=O)Nc2ccc(OC(F)(F)F)cc2)CCO3)no1
recorded endpoint: pIC50
value measured: 8.85

compound structure: O=C(Nc1ccc(C(F)(F)F)cc1)N1CCOC2(CCN(C(=O)c3c(F)cccc3F)CC2)C1
recorded endpoint: pIC50
value measured: 8.89

compound structure: O=C(Nc1ccc(OC(F)(F)F)cc1)N1CCOC2(CCN(C(=O)c3cnoc3C3CC3)CC2)C1
recorded endpoint: pIC50
value measured: 9.22

Give me pIC50 for each of these molecules, listed below.
1. O=C(Nc1ccc(C(F)(F)F)cc1)N1CCOC2(CCN(C(=O)c3ccccn3)CC2)C1
2. COc1ccccc1CC(=O)N1CCC2(CC1)CN(C(=O)Nc1ccc(OC(F)(F)F)cc1)CCO2

1: 8.38; 2: 9.30

====

- tested system: Bifunctional epoxide hydrolase 2 (Homo sapiens)
- assay summary: Inhibition of human recombinant sEH expressed in baculovirus infected insect Sf9 cells using cyano(6-methoxynaphthalen-2-yl)methyl trans-[(3-phenyloxiran-2-yl)methyl] carbonate as substrate preincubated for 30 mins followed by substrate addition measured after 20 to 45 mins by fluorescence assay
pIC50: −log10 of the molar value.
# binarize pIC50: threshold 9 inclusive, high side yes (1), low side no (0)

compound structure: N#Cc1ccc(C(=O)N2CCC3(CC2)CN(C(=O)Nc2ccc(C(F)(F)F)cc2)CCO3)cc1
class label: no (0)

compound structure: O=C(Nc1ccc(OC(F)(F)F)cc1)N1CCC2(CCCN(C(=O)c3c(F)cccc3F)C2)CC1
class label: no (0)

From here, focus on the item given below.
Evaluate `O=C(Nc1ccc(OC(F)(F)F)cc1)N1CCOC2(CCN(C(=O)C3(c4ccccc4)CC3)CC2)C1` : pIC50 at minimum 9?
yes (1)

====

- tested system: Bifunctional epoxide hydrolase 2 (Rattus norvegicus, UniProt P80299)
- Sequence (P80299 whole entry): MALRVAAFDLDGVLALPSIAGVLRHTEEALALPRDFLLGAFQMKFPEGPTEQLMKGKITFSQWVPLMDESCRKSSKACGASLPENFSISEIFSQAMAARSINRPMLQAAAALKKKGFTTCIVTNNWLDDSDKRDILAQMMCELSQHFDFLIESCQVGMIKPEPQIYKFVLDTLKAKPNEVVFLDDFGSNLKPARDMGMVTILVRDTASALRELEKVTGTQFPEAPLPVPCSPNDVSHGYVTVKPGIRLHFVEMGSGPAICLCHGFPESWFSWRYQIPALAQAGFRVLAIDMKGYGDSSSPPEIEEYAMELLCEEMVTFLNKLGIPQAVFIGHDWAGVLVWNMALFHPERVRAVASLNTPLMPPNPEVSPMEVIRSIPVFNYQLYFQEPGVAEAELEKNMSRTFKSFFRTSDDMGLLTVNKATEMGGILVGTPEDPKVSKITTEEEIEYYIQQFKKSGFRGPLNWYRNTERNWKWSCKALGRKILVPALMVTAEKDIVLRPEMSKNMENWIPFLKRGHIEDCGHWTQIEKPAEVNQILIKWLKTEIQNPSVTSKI
- assay summary: Inhibition of rat recombinant sEH expressed in baculovirus infected insect Sf9 cells using cyano(6-methoxynaphthalen-2-yl)methyl trans-[(3-phenyloxiran-2-yl)methyl] carbonate as substrate preincubated for 30 mins followed by substrate addition measured after 20 to 45 mins by fluorescence assay
Would you kindly list pIC50 for each of these molecules?
One number for each entry, as −log10 of the molar value.

Use the examples below as a reference point.
compound structure: O=C(Nc1ccc(C(F)(F)F)cc1)N1CCOC2(CCN(C(=O)c3cccc(Cl)c3)CC2)C1
tested system: Bifunctional epoxide hydrolase 2 (Rattus norvegicus, UniProt P80299)
pIC50: 7.43
//
compound structure: Cc1cnc(C(=O)N2CCC3(CC2)CN(C(=O)Nc2ccc(OC(F)(F)F)cc2)CCO3)cn1
tested system: Bifunctional epoxide hydrolase 2 (Rattus norvegicus, UniProt P80299)
pIC50: 8.06
//
compound structure: O=C(Nc1ccc(OC(F)(F)F)cc1)N1CCOC2(CCN(C(=O)c3ccccc3F)CC2)C1
tested system: Bifunctional epoxide hydrolase 2 (Rattus norvegicus, UniProt P80299)
pIC50: 8.03
//
compound structure: CC(=O)Nc1ccccc1C(=O)N1CCC2(CC1)CN(C(=O)Nc1ccc(C(F)(F)F)cc1)CCO2
tested system: Bifunctional epoxide hydrolase 2 (Rattus norvegicus, UniProt P80299)
pIC50: 8.17
//
compound structure: CC(C)(C)C(=O)N1CCC2(CC1)CN(C(=O)Nc1ccc(C(F)(F)F)cc1)CCO2
tested system: Bifunctional epoxide hydrolase 2 (Rattus norvegicus, UniProt P80299)
pIC50: 7.92

Give me pIC50 for each of these molecules, listed below.
1. O=C(Nc1ccc(C(F)(F)F)cc1)N1CCOC2(CCN(C(=O)c3ccccc3Cl)CC2)C1
2. O=C(Nc1ccc(OC(F)(F)F)cc1)N1CCOC2(CCN(C(=O)c3cnoc3C3CC3)CC2)C1
3. Cc1cc(C(=O)N2CCC3(CC2)CN(C(=O)Nc2ccc(OC(F)(F)F)cc2)CCO3)no1

7.89
7.65
7.59
